Collected IC50 values appear next to each entry.
- study_target: Human plasma kallikrein (Homo sapiens (Human), UniProt P03952)
- Sequence (P03952 391-638): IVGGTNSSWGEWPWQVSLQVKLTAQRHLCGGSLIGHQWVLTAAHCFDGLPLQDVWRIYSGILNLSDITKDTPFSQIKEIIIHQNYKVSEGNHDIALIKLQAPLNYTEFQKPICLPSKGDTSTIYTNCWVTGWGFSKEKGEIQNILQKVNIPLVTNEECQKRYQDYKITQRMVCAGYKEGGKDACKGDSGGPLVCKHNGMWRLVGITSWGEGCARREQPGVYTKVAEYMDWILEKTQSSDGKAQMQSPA
- Sequence (P03952 20-390 partner): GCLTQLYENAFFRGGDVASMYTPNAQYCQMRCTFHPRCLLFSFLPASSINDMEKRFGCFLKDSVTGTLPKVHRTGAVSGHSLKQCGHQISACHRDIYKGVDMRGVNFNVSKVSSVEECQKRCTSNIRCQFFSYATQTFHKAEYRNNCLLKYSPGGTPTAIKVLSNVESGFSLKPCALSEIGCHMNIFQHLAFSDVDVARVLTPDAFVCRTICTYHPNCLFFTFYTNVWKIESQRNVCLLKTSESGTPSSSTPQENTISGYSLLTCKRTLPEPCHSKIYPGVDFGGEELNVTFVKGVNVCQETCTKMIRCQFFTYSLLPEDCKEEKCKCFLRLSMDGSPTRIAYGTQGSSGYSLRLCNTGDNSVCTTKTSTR
- experiment_description: Kallikrein Assay (fluorogenic substrate Acetyl-K-P-R-AFC)
- condition_parameters: Plasma Kallikrein (PKal)
Report the value in nM with no unit label.

Worked cases, answers included:
[[record]]
compound = "Cc1c(C(C)n2cc(NC(=O)c3cncc(-c4c(OC(F)F)ccc(Cl)c4F)n3)cn2)cnc(N2C[C@H]3C[C@H]3C2=O)c1F (single isomer, unassigned) [Example 133]"
reported_value = 0.6

[[record]]
compound = "C[C@@H](c1cnc(N2C[C@H]3C[C@H]3C2=O)nc1N)n1cc(NC(=O)c2cncc(-c3c(C(F)F)ccc(Cl)c3F)n2)cn1"
reported_value = 713


Next, consider the following compound.
Ask | Data request, read-out IC50, for Cc1c(C(C)n2cc(NC(=O)c3cncc(-c4c(OC(F)F)ccc(Cl)c4F)n3)cn2)cnc(N2C[C@H]3C[C@H]3C2=O)c1F (single isomer, unassigned) [Example 134]
Reply | 13.9
